# EXPERIMENTAL_SYSTEM: interaction between HPV-16 E6 and E6AP (Human papillomavirus type 16, UniProt P03126)
# Construct: made in house; host or cells: E. coli BL21
# Sequence (P03126 whole entry): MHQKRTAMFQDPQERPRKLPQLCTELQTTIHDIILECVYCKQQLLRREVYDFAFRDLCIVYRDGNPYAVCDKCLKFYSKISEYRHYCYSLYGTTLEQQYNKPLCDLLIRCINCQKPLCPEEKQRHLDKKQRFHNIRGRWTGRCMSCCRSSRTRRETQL
# EXPERIMENT: biochemical
# Type: binding
# RUN_PARAMETERS: read-out: Maximal Inhibition
RECORDED_METRIC: Emax

MOLECULE | EXPERIMENTAL_SYSTEM | RESULT
O=c1cc(-c2ccccc2)oc2ccc(-c3cccc(-c4nnn[nH]4)c3)cc12 | interaction between HPV-16 E6 and E6AP (Human papillomavirus type 16, UniProt P03126) | 96%
COc1ccc(-c2ccc3oc(-c4ccccc4)cc(=O)c3c2)c(OC)c1C(=O)O | interaction between HPV-16 E6 and E6AP (Human papillomavirus type 16, UniProt P03126) | 75%
O=C(O)c1cccc(-c2ccc3oc(-c4cccc(O)c4)cc(=O)c3c2)c1 | interaction between HPV-16 E6 and E6AP (Human papillomavirus type 16, UniProt P03126) | 75%
O=C(O)c1cccc(-c2ccc3c(=O)cc(-c4ccccc4)oc3c2)c1 | interaction between HPV-16 E6 and E6AP (Human papillomavirus type 16, UniProt P03126) | 84%
O=C(O)c1cc(-c2ccc3c(=O)cc(-c4ccccc4)oc3c2)ccc1F | interaction between HPV-16 E6 and E6AP (Human papillomavirus type 16, UniProt P03126) | 75%
O=c1cc(-c2ccc(O)c(O)c2)oc2cc(O)cc(O)c12 [luteolin, reference compound] | interaction between HPV-16 E6 and E6AP (Human papillomavirus type 16, UniProt P03126) | 99%
O=c1cc(-c2cccc(C(F)(F)F)c2)oc2ccc(-c3nnn[nH]3)cc12 | interaction between HPV-16 E6 and E6AP (Human papillomavirus type 16, UniProt P03126) | 95%
O=C(O)c1cc(-c2ccc3c(=O)cc(-c4ccccc4)oc3c2)ccc1Cl | interaction between HPV-16 E6 and E6AP (Human papillomavirus type 16, UniProt P03126) | 86%
COc1cccc(-c2cc(=O)c3cc(-c4nnn[nH]4)ccc3o2)c1 | interaction between HPV-16 E6 and E6AP (Human papillomavirus type 16, UniProt P03126) | 95%
O=c1cc(-c2ccccc2)oc2ccc(-c3nnn[nH]3)cc12 | interaction between HPV-16 E6 and E6AP (Human papillomavirus type 16, UniProt P03126) | 97%

* * *

# EXPERIMENTAL_SYSTEM: interaction between HPV-16 E6 and E6AP (Human papillomavirus type 16, UniProt P03126)
# Construct: made in house; host or cells: E. coli BL21
# EXPERIMENT: biochemical
# Assay type: binding
# Experimental: To characterize potential E6 inhibitors, a robust in vitro assay was developed to measure the interaction between HPV-16 E6 and E6AP. […] Binding efficiency was determined from the intensity of BAP activated chemiluminescence remaining in each well. […] Pre-Block - 96-well filter plates were prepared (0.2 µm BioTrace NT, Pall). […] 60 µL of Immunostar-AP assay reagent was added, the BAP activity was allowed to develop for 10 minutes and the plates were read on a Wallace Luminometer. […]
pIC50: −log10 of the molar value.
# pIC50 values compiled below

COMPOUND | pIC50
O=C(O)c1cc(-c2ccc3c(=O)cc(-c4ccccc4)oc3c2)ccc1F | 4.32
CC(=O)Oc1cc(OC(C)=O)c2c(=O)cc(-c3ccc(OC(C)=O)c(OC(C)=O)c3)oc2c1 | 4.36
O=C(O)c1cccc(-c2ccc3c(=O)cc(-c4ccccc4)oc3c2)c1 | 4.33
O=c1cc(-c2ccccc2)oc2ccc(-c3cccc(-c4nnn[nH]4)c3)cc12 | 5.16
O=C(O)c1cc(-c2ccc3c(=O)cc(-c4ccccc4)oc3c2)ccc1Cl | 4.21
COc1ccc(-c2ccc3oc(-c4ccccc4)cc(=O)c3c2)c(OC)c1C(=O)O | 4.90
CC(=O)Oc1cc(OC(C)=O)c2c(=O)c(OC(C)=O)c(-c3ccc(OC(C)=O)c(OC(C)=O)c3)oc2c1 | 4.36
O=c1cc(-c2ccc(O)c(O)c2)oc2cc(O)cc(O)c12 [luteolin, reference compound] | 5.37
O=c1cc(-c2cccc(C(F)(F)F)c2)oc2ccc(-c3nnn[nH]3)cc12 | 5.96
COc1cccc(-c2cc(=O)c3cc(-c4nnn[nH]4)ccc3o2)c1 | 5.55
O=c1cc(-c2ccccc2)oc2ccc(-c3nnn[nH]3)cc12 | 5.29
